Assignment: determine reported surface tension liquid-gas for the given molecules.
- assayName: xn = mol fraction of the nth substance listed
- testParameters: 308.15 K, x1 = 0.7
The reply should be a number in mN/m, with the unit left off.

Given CCCCCCCC(=O)OCC [ethyl octanoate] + CCO , state its recorded surface tension liquid-gas.
24.9

What about CCCC(=O)OCCC(C)C [3-methylbutyl butanoate] + CCO ?
23.4

What about CCOC(=O)c1ccccc1 [ethyl benzoate] + CCO ?
29.6

What about CCCCCC(=O)OCC [ethyl hexanoate] + CCO ?
23.9

What about CC(=O)OCCC(C)C [3-methylbutyl ethanoate] + CCO ?
22.8

What about CCOC(=O)Cc1ccccc1 [ethyl phenylacetate] + CCO ?
29.8
